Where these numbers come from: ChEMBL document CHEMBL1961873

- Study system: Tyrosine-protein kinase JAK2 (Homo sapiens);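 further: mean JAK2 inhibition from the GSK PKIS screen, compounds tested at 1 µM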
- Condition description: at 1 µM
Quick reference: inhibition of the listed items.
Quick note: give the figure in %, leave out the unit.

Consider the reported inhibition for these compounds:
Compound	inhibition (%)
Fc1cccc(COc2ccc(Nc3ncncc3C#Cc3ccccc3)cc2Cl)c1	2.01
CCOc1ccc2c(-c3ccnc(Nc4cc(OC)cc(C(F)(F)F)c4)n3)cnn2n1	5.38
COc1ccc2ncn(-c3cc(O[C@H](C)c4ccccc4C(F)(F)F)c(C(N)=O)s3)c2c1	-1.12
CS(=O)(=O)Nc1ccc(-c2cc(-c3ccccc3)cc(C(N)=O)c2N)cc1	3.86
COc1cc(Nc2ncc(-c3ccccc3)o2)cc(OC)c1	1.78

Exercise: Requested read-out: inhibition. Entry: `NS(=O)(=O)c1ccc(N/N=C2\C(=O)Nc3ccc(C(=O)NCc4ccncc4)cc32)cc1`
Key: 1.38

Exercise: Requested read-out: inhibition. Entry: `O=C1Nc2ccccc2/C1=C1\CCc2cc(O)ccc21`
Key: 3.79

Exercise: Requested read-out: inhibition. Entry: `O=C(O[C@H]1CN[C@H](C#Cc2cc3ncnc(Nc4ccc(OCc5cccc(F)c5)c(Cl)c4)c3s2)C1)N1CCOCC1`
Key: 1.3

Exercise: Requested read-out: inhibition. Entry: `c1ccc(-c2n[nH]cc2-c2ccnc(-c3ccc(OCCn4ccnc4)cc3)c2)nc1`
Key: 3.12

Exercise: Requested read-out: inhibition. Entry: `CS(=O)(=O)Nc1ccc(-c2ccc3c(NC(=O)C4CC4)n[nH]c3c2)cc1`
Key: 2.88

----------
Quick reference: inhibition of the listed items.
- Study system: Calcium/calmodulin-dependent protein kinase type IV (Homo sapiens);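 further: each value is the mean of the measured CAMK4 inhibition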
- Condition description: at 1 µM
Quick note: give the figure in %, leave out the unit.

Query smiles	U	inhibition
Fc1ccc(Nc2nccc(-c3c(-c4ccc(C(F)(F)F)cc4)nn4ncccc34)n2)cc1F	%	0.05
CCS(=O)(=O)c1ccc(OC)c(Nc2ncc(-c3cccc(F)c3)o2)c1	%	1.07

Exercise: Requested read-out: inhibition. Entry: `COc1ccc2ncn(-c3cc(O[C@H](C)c4ccccc4C(F)(F)F)c(C(N)=O)s3)c2c1`
Key: 3.11

Exercise: Requested read-out: inhibition. Entry: `Cc1ccc(-c2cc3c(NC(=O)C4CC4)ncnc3o2)cc1`
Key: 30.3

Exercise: Requested read-out: inhibition. Entry: `CNC(=O)c1cncc(/C=C/c2ccccc2C)c1`
Key: -2.38

Exercise: Requested read-out: inhibition. Entry: `CCN1CCC(C(=O)Nc2n[nH]c3nnc(-c4cccc(F)c4F)cc23)CC1`
Key: -1.03

Exercise: Requested read-out: inhibition. Entry: `COc1c(C(N)=O)cc(-c2ccc(Cl)cc2)cc1-c1ccc(S(N)(=O)=O)cc1`
Key: 3.77

Exercise: Requested read-out: inhibition. Entry: `CNC(=O)c1ncccc1Nc1nc(Nc2cc3c(cc2OC)CCCN3C(=O)CN(C)C)nc2[nH]ccc12`
Key: 5.93

Exercise: Requested read-out: inhibition. Entry: `O=C1Nc2ccccc2/C1=C1\CCc2cc(O)ccc21`
Key: -0.69

Exercise: Requested read-out: inhibition. Entry: `c1cnn2ncc(-c3ccnc(NCCCN4CCOCC4)n3)c2c1`
Key: -0.41

----------
Quick reference: inhibition of the listed items.
- Tested on: Epidermal growth factor receptor (Homo sapiens), P00533 [T790M]
- Sequence (P00533 whole entry T790M): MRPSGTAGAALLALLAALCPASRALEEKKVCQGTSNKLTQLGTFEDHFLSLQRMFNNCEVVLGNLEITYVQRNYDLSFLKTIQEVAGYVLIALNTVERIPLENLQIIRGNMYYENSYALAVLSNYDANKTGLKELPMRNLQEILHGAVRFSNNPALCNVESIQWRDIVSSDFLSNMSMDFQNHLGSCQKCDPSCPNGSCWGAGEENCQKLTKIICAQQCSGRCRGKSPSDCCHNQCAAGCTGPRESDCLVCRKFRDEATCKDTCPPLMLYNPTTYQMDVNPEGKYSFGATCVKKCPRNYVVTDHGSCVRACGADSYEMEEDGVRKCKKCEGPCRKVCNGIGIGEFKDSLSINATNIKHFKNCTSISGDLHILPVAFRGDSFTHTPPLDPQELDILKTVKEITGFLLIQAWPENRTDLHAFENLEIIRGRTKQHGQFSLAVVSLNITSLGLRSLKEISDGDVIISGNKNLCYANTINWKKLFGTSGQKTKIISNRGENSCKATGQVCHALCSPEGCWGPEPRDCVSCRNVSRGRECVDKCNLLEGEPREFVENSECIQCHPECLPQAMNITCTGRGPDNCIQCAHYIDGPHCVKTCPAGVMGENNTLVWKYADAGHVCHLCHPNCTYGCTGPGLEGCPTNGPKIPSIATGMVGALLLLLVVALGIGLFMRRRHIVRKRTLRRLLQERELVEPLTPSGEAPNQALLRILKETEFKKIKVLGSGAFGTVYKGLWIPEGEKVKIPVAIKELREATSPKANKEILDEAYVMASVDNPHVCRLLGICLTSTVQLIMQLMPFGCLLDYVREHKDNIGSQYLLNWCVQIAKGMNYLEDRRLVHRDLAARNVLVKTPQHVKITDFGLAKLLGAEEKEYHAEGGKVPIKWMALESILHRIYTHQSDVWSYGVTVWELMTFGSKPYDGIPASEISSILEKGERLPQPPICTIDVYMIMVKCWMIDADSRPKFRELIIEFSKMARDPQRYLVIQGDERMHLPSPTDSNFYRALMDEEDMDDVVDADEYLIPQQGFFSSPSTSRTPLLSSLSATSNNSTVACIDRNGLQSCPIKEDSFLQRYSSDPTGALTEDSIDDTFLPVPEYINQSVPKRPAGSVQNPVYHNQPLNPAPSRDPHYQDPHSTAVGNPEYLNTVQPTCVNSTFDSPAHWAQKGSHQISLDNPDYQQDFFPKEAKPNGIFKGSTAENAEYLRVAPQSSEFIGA
- Condition description: at 1 µM
Quick note: give the figure in %, leave out the unit.

Query smiles	Experimental value
O=C(O[C@H]1CN[C@H](C#Cc2cc3ncnc(Nc4ccc5c(cnn5Cc5ccccc5)c4)c3s2)C1)N1CCOCC1	9.06
Fc1cccc(COc2ccc(Nc3ncncc3C#Cc3ccccc3)cc2Cl)c1	3.85
COc1cc(Nc2ncc(-c3ccccc3)o2)cc(OC)c1	1.99

Exercise: Requested read-out: inhibition. Entry: `N#Cc1cccc(Nc2ncc(-c3ccccc3)o2)c1`
Key: 3.24

Exercise: Requested read-out: inhibition. Entry: `COc1c(C(N)=O)cc(-c2ccc(Cl)cc2)cc1-c1ccc(S(N)(=O)=O)cc1`
Key: 3.77

Exercise: Requested read-out: inhibition. Entry: `Cn1c(-c2nonc2N)nc2cnccc21`
Key: 0.67

----------
Quick reference: inhibition of the listed items.
- Study system: Insulin-like growth factor 1 receptor (Homo sapiens) (UniProt P08069);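 further: each value is a mean percent inhibition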
- Sequence (P08069 31-736 limits assumed): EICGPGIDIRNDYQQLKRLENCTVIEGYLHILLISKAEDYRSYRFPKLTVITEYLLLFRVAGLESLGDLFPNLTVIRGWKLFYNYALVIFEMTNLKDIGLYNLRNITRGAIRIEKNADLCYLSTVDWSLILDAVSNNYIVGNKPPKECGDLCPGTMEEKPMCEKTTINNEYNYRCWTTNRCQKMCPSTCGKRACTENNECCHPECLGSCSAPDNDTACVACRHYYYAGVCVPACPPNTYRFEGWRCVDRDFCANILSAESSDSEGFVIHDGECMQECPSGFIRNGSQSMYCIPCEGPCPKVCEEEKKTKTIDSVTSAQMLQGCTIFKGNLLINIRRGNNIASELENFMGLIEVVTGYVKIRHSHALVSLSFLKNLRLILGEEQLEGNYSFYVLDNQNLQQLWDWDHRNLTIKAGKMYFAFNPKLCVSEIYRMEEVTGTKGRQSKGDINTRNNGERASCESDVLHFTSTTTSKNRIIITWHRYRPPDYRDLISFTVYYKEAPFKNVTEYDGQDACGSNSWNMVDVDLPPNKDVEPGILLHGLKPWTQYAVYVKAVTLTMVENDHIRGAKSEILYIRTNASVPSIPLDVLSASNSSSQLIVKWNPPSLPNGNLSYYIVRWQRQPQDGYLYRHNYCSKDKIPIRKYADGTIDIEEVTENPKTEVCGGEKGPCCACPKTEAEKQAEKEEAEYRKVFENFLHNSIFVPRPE
- Sequence (P08069 741-1367 limits assumed): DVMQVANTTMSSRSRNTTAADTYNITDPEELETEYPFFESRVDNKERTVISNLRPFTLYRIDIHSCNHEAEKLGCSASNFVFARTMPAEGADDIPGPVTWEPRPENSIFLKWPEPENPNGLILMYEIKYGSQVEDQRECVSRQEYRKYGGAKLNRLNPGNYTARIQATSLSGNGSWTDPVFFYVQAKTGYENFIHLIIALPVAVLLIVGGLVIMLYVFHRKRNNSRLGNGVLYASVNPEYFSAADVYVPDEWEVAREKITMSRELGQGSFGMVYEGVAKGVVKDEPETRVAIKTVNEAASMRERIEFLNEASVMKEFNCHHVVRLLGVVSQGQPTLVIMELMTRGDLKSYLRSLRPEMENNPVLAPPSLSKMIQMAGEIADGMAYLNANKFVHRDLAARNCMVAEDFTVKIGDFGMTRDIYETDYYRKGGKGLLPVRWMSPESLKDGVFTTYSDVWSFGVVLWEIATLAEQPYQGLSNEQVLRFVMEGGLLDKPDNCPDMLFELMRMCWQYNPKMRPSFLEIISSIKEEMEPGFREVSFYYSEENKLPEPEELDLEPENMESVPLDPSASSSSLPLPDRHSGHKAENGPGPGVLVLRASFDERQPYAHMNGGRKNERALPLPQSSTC
- Condition description: at 1 µM
Quick note: give the figure in %, leave out the unit.

Exercise: Requested read-out: inhibition. Entry: `c1ccc(-c2n[nH]cc2-c2ccnc(-c3ccc(OCCn4ccnc4)cc3)c2)nc1`
Key: 2.24

Exercise: Requested read-out: inhibition. Entry: `c1cnn2ncc(-c3ccnc(NCCCN4CCOCC4)n3)c2c1`
Key: 1.61

Exercise: Requested read-out: inhibition. Entry: `COc1c(C(N)=O)cc(-c2ccc(Cl)cc2)cc1-c1ccc(S(N)(=O)=O)cc1`
Key: 4.41

Exercise: Requested read-out: inhibition. Entry: `COc1cc2c(cc1Nc1nc(Nc3cccc(F)c3C(N)=O)c3cc[nH]c3n1)N(C(=O)CN1CCN(C(C)C)CC1)CC2`
Key: 87.7

Exercise: Requested read-out: inhibition. Entry: `Fc1ccc(Nc2nccc(-c3c(-c4ccc(C(F)(F)F)cc4)nn4ncccc34)n2)cc1F`
Key: 4.26

Exercise: Requested read-out: inhibition. Entry: `CN1CCC(n2cnc(-c3ccc(F)cc3)c2-c2ccnc(NCCO)n2)CC1`
Key: 4.78

Exercise: Requested read-out: inhibition. Entry: `N#Cc1cccc(Nc2ncc(-c3ccccc3)o2)c1`
Key: 0.27

Exercise: Requested read-out: inhibition. Entry: `Cc1cc(O)cc(C)c1/C=C/c1cncc(C(N)=O)c1`
Key: 2.8

Exercise: Requested read-out: inhibition. Entry: `Cn1c(-c2nonc2N)nc2cnccc21`
Key: 3.66

Exercise: Requested read-out: inhibition. Entry: `CS(=O)(=O)Nc1ccc(-c2cc(-c3ccccc3)cc(C(N)=O)c2N)cc1`
Key: 8.99

----------
Quick reference: inhibition of the listed items.
- Study system: Serine/threonine-protein kinase Nek6 (Homo sapiens) (UniProt Q9HC98);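 further: values are mean inhibition of NEK6 from the GSK PKIS screen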
- Sequence (Q9HC98 whole entry): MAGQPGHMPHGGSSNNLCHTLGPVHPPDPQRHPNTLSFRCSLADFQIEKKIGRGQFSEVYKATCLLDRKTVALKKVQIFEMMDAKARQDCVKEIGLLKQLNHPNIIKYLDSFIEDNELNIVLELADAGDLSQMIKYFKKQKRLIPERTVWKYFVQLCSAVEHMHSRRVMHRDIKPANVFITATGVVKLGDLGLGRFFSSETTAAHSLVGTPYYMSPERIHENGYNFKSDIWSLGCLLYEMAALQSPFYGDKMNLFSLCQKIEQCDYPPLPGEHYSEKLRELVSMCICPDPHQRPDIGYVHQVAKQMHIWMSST
- Condition description: at 1 µM
Quick note: give the figure in %, leave out the unit.

Consider the reported inhibition for these compounds:
Query smiles	Property	Experimental value
O=C(Nc1n[nH]c2nnc(-c3cccnc3)cc12)C1CC1	inhibition	-0.1
Cn1c(-c2nonc2N)nc2cnccc21	inhibition	-0.49
CS(=O)(=O)CCNCc1ccoc1-c1ccc2ncnc(Nc3ccc(OCc4ccccc4)cc3)c2c1	inhibition	0.7

Exercise: Requested read-out: inhibition. Entry: `Cc1nnc(-c2cccc(-c3ccc(C(=O)NCC4CC4)cc3)c2)o1`
Key: 6.86

Exercise: Requested read-out: inhibition. Entry: `NS(=O)(=O)c1ccc(N/N=C2\C(=O)Nc3ccc(C(=O)NCc4ccncc4)cc32)cc1`
Key: 5.08

----------
- Study system: Mitogen-activated protein kinase kinase kinase kinase 2 (Homo sapiens);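 further: values given as mean percent inhibition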
- Condition description: at 0.1 µM
Quick reference: inhibition of the listed items.
Quick note: give the figure in %, leave out the unit.

Consider the reported inhibition for these compounds:
Query smiles	inhibition / %
CS(=O)(=O)CCNCc1ccoc1-c1ccc2ncnc(Nc3ccc(OCc4ccccc4)cc3)c2c1	1.72
CN1CCC(n2cnc(-c3ccc(F)cc3)c2-c2ccnc(NCCO)n2)CC1	1.01
COC(=O)Nc1nc2cc(Oc3ccc(NC(=O)Nc4ccccc4)cc3)ccc2[nH]1	1.5
COc1ccc(-c2nn3ncccc3c2-c2ccnc(Nc3ccc(F)c(F)c3)n2)cc1	2.1

We next turn to a different compound, shown below.
Exercise: Requested read-out: inhibition. Entry: `CCOc1ccc2c(-c3ccnc(Nc4cc(OC)cc(C(F)(F)F)c4)n3)cnn2n1`
Key: 0.08

----------
- Study system: MAP kinase-interacting serine/threonine-protein kinase 1 (Homo sapiens) (UniProt Q9BUB5)
- Sequence (Q9BUB5 whole entry, looked up): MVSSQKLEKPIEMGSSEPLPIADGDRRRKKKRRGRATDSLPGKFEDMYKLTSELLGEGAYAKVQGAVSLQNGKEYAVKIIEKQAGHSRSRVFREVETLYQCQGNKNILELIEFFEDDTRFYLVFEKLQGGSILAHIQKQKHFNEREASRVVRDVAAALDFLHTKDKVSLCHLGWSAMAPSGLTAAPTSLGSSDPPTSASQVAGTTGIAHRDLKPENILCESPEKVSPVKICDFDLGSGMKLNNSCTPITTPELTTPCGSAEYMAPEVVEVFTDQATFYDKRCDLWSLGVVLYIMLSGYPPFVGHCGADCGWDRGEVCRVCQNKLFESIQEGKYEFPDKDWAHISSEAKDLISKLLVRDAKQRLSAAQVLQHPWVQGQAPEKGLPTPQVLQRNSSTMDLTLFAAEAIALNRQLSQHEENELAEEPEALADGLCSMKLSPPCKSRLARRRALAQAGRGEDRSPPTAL
- Condition description: at 0.1 µM
- Description: GSK_PKIS: MKNK1 mean inhibition at 0.1 uM [Nanosyn]
Property: inhibition (%)
Quick note: give the figure in %, leave out the unit.

Consider the reported inhibition for these molecules:
Query smiles	U	inhibition
c1ccc(-c2n[nH]cc2-c2ccnc(-c3ccc(OCCn4ccnc4)cc3)c2)nc1	%	0.75
O=C(O[C@H]1CN[C@H](C#Cc2cc3ncnc(Nc4ccc(OCc5cccc(F)c5)c(Cl)c4)c3s2)C1)N1CCOCC1	%	4.6
COc1cc(N2CCN(C(C)C)CC2)ccc1Nc1nc(Nc2cccc(F)c2C(=O)O)c2cc[nH]c2n1	%	3.1

Exercise: Requested read-out: inhibition. Entry: `CCS(=O)(=O)c1ccc(OC)c(Nc2ncc(-c3cccc(C(C)=O)c3)o2)c1`
Key: 3.04

Exercise: Requested read-out: inhibition. Entry: `NC(=O)c1ccc2c(-c3ccnc(NCCCO)n3)c(-c3ccc(F)cc3)nn2c1`
Key: 4.56

Exercise: Requested read-out: inhibition. Entry: `CS(=O)(=O)CCNCc1ccoc1-c1ccc2ncnc(Nc3ccc(OCc4ccccc4)cc3)c2c1`
Key: 2

Exercise: Requested read-out: inhibition. Entry: `Cc1c2ccc(N(C)c3ccnc(Nc4cccc(S(N)(=O)=O)c4)n3)cc2nn1C`
Key: 1.23

Exercise: Requested read-out: inhibition. Entry: `CCN1CCC(C(=O)Nc2n[nH]c3nnc(-c4cccc(F)c4F)cc23)CC1`
Key: 1.56

Exercise: Requested read-out: inhibition. Entry: `COc1cc2c(cc1Nc1nc(Nc3cccc(F)c3C(N)=O)c3cc[nH]c3n1)N(C(=O)CN1CCN(C(C)C)CC1)CC2`
Key: 1.4

Exercise: Requested read-out: inhibition. Entry: `CS(=O)(=O)Nc1ccc(-c2cc(-c3ccccc3)cc(C(N)=O)c2N)cc1`
Key: 1.45

Exercise: Requested read-out: inhibition. Entry: `O=C(O[C@H]1CN[C@H](C#Cc2cc3ncnc(Nc4ccc5c(ccn5Cc5cc(F)ccc5F)c4)c3s2)C1)N1CCOCC1`
Key: 2.17

Exercise: Requested read-out: inhibition. Entry: `CN1CCC(n2cnc(-c3ccc(F)cc3)c2-c2ccnc(NCCO)n2)CC1`
Key: 4.71

Exercise: Requested read-out: inhibition. Entry: `O=C(O[C@H]1CN[C@H](C#Cc2cc3ncnc(Nc4ccc5c(cnn5Cc5ccccc5)c4)c3s2)C1)N1CCOCC1`
Key: 1.01

Exercise: Requested read-out: inhibition. Entry: `CC(C)c1ccc(-c2cc(-c3c[nH]nc3-c3ccccn3)ccn2)cc1`
Key: 1.48

Exercise: Requested read-out: inhibition. Entry: `O=C1Nc2ccccc2/C1=C1\CCc2cc(O)ccc21`
Key: 3.12

Exercise: Requested read-out: inhibition. Entry: `COc1ccc2ncn(-c3cc(O[C@H](C)c4ccccc4C(F)(F)F)c(C(N)=O)s3)c2c1`
Key: -0.15

Exercise: Requested read-out: inhibition. Entry: `CN(c1ccc(NC(=O)NCCN2CCOCC2)cc1)c1ccnc(Nc2ccc(CS(C)(=O)=O)cc2)n1`
Key: 2.87

Exercise: Requested read-out: inhibition. Entry: `CCn1c(-c2nonc2N)nc2cncc(C(=O)NCCNC)c21`
Key: 2.94

Exercise: Requested read-out: inhibition. Entry: `NS(=O)(=O)c1ccc(N/N=C2\C(=O)Nc3cccc(CCc4ccncc4)c32)cc1`
Key: 1.05
